experiment: Caco-2 permeability (gastrointestinal resorption model); assay type: in vitro ADME; conditions: human, Caco-2
measured.metric: recovery (%)

molecule="CCCCC(=O)N1CCN(S(=O)(=O)c2ccc3c(c2)C(=C2CCCC2)C(=O)N3)CC1 [9h]" assay_value=63.2

I. O=C1Nc2ccc(S(=O)(=O)N3CCN(C(=O)c4cccc(Br)c4)CC3)cc2C1=C1CCCC1 [9f]
II. O=C1Nc2ccc(S(=O)(=O)N3CCN(C(=O)C4CCCCC4)CC3)cc2C1=C1CCCC1 [9b]
// compare measured recovery, left I , right II , return larger Give the label under which the chosen entry appears.
I

---

# reported melting point; entries follow
Counter-ions that a name gives are not always drawn.

compound="O=C1Nc2ccc(S(=O)(=O)N3CCN(C(=O)c4ccccc4)CC3)cc2C1=C1CCCC1 (as salt: hydrochloride)" measured_metric="melting point" assay_value="135 to 140 °C"
compound="O=C1Nc2ccc(S(=O)(=O)N3CCN(C(=O)c4cccc(Br)c4)CC3)cc2C1=C1CCCC1 (as salt: hydrochloride)" measured_metric="melting point" assay_value="130 to 135 °C"
compound="O=C1Nc2ccc(S(=O)(=O)N3CCN(C(=O)c4cccc(F)c4)CC3)cc2C1=C1CCCC1 (as salt: hydrochloride)" measured_metric="melting point" assay_value="132 to 135 °C"

Here is another compound to look at.
Entry under review: O=C1Nc2ccc(S(=O)(=O)N3CCN(C(=O)c4cccc(C(F)(F)F)c4)CC3)cc2C1=C1CCCC1 (as salt: hydrochloride) . Reported melting point?
139 to 143 °C

---

system: CCRF-CEM; experiment: 3 day MTS cytotoxicity assay, CCRF-CEM; type: cell-based; conditions: Homo sapiens, ITK-positive, mean ± SD, n ≥ 6
pIC50: −log10 of the molar value.
Here, each record is paired with measured pIC50 data.

Examples with answers:
molecule=O=C1Nc2ccc(S(=O)(=O)N3CCN(C(=O)c4cccnc4)CC3)cc2C1=C1CCCC1 assay_value="< 4.30"
molecule=CC(C)C(=O)N1CCN(S(=O)(=O)c2ccc3c(c2)C(=C2CCCC2)C(=O)N3)CC1 assay_value="< 4.30"

GET /values?readout=pIC50&item= "O=C1Nc2ccc(S(=O)(=O)N3CCN(C(=O)c4ccccc4)CC3)cc2C1=C1CCCC1"
< 4.30

Give the measured pIC50 of "O=C1Nc2ccc(S(=O)(=O)N3CCN(C(=O)c4cccc(C(F)(F)F)c4)CC3)cc2C1=C1CCCC1" .
< 4.30

Looking for the measured pIC50 of C=CC(=O)N1CCC[C@@H](n2nc(-c3ccc(Oc4ccccc4)cc3)c3c(N)ncnc32)C1 [ibrutinib, Ibrutinib, reference compound] , can you help?
5.40

Field request: pIC50 | item: "CCCCC(=O)N1CCN(S(=O)(=O)c2ccc3c(c2)C(=C2CCCC2)C(=O)N3)CC1"
4.34

What value of pIC50 has been recorded for this entry: "O=C1Nc2ccc(S(=O)(=O)N3CCN(C(=O)C4CC4)CC3)cc2C1=C1CCCC1"
< 4.30

Any idea what its pIC50 is? The molecule is "O=C1Nc2ccc(S(=O)(=O)N3CCN(C(=O)C4CCCCC4)CC3)cc2C1=C1CCCC1"
4.45

---

test: Plasma protein binding; type: in vitro ADME; conditions: in vitro, read-out: plasma protein binding (% bound) (converted)
measured.metric: fraction unbound

smiles_structure=CCCCC(=O)N1CCN(S(=O)(=O)c2ccc3c(c2)C(=C2CCCC2)C(=O)N3)CC1 assay_value=0.0334

I. O=C1Nc2ccc(S(=O)(=O)N3CCN(C(=O)c4cccc(Br)c4)CC3)cc2C1=C1CCCC1
II. O=C1Nc2ccc(S(=O)(=O)N3CCN(C(=O)C4CCCCC4)CC3)cc2C1=C1CCCC1
Would you kindly point out which of I and II has the smaller fraction unbound figure? Reply briefly: the label of your chosen item.
I

---

tested on: RAMOS; assay: 3 day MTS cytotoxicity assay, RAMOS; format: cell-based, human; settings: Homo sapiens, Ramos, BTK-positive, mean ± SD, n ≥ 6
# key: entry, value: IC50
Provide the reading as a plain figure in nM.

Here are 2 molecules together with their reported answers.
molecule=O=C1Nc2ccc(S(=O)(=O)N3CCN(C(=O)c4cccc(Br)c4)CC3)cc2C1=C1CCCC1 endpoint_unit=nM assay_value=2060
molecule=CCCCC(=O)N1CCN(S(=O)(=O)c2ccc3c(c2)C(=C2CCCC2)C(=O)N3)CC1 endpoint_unit=nM assay_value=2750

So what's the measured IC50 for this one? C=CC(=O)N1CCC[C@@H](n2nc(-c3ccc(Oc4ccccc4)cc3)c3c(N)ncnc32)C1 [ibrutinib, Ibrutinib, reference compound]
300

IC50 lookup needed for "O=C1Nc2ccc(S(=O)(=O)N3CCN(C(=O)C4CCCCC4)CC3)cc2C1=C1CCCC1" , thanks.
3040

Which IC50 reading was recorded for the molecule "O=C1Nc2ccc(S(=O)(=O)N3CCN(C(=O)c4cccc(F)c4)CC3)cc2C1=C1CCCC1" ?
2090

---

Where a name gives a salt, the structure may show the parent alone.
measured.metric: melting point

Example cases with answers are listed next.
molecule="O=C1Nc2ccc(S(=O)(=O)N3CCN(C(=O)C4CC4)CC3)cc2C1=C1CCCC1 (as salt: hydrochloride) [9c]" assay_value="136 to 142 °C"
molecule="O=C1Nc2ccc(S(=O)(=O)N3CCN(C(=O)C4CCCCC4)CC3)cc2C1=C1CCCC1 (as salt: hydrochloride) [9b]" assay_value="140 to 145 °C"
molecule="CC(C)C(=O)N1CCN(S(=O)(=O)c2ccc3c(c2)C(=C2CCCC2)C(=O)N3)CC1 [9a]" assay_value="165 to 171 °C"
molecule="O=C1Nc2ccc(S(=O)(=O)N3CCN(C(=O)c4cccnc4)CC3)cc2C1=C1CCCC1 (as salt: hydrochloride) [9i]" assay_value="195 to 200 °C"
molecule="O=C1Nc2ccc(S(=O)(=O)N3CCN(C(=O)c4cccc(Cl)c4)CC3)cc2C1=C1CCCC1 (as salt: hydrochloride) [9e]" assay_value="133 to 138 °C"

Please give the measured melting point for this molecule: CCCCC(=O)N1CCN(S(=O)(=O)c2ccc3c(c2)C(=C2CCCC2)C(=O)N3)CC1 (as salt: hydrochloride) [9h]
130 to 135 °C

---

tested on: MDR1; assay: MDR1-MDCK permeability (blood–brain barrier model); assay type: in vitro ADME; conditions: dog
measured.metric: efflux ratio

compound="O=C1Nc2ccc(S(=O)(=O)N3CCN(C(=O)C4CCCCC4)CC3)cc2C1=C1CCCC1 [9b]" assay_value=9.3

1. CCCCC(=O)N1CCN(S(=O)(=O)c2ccc3c(c2)C(=C2CCCC2)C(=O)N3)CC1 [9h]
2. O=C1Nc2ccc(S(=O)(=O)N3CCN(C(=O)c4cccc(Br)c4)CC3)cc2C1=C1CCCC1 [9f]
Between the two listed entries 1 and 2 , which has its efflux ratio at the higher number? Reply with the label of the item you choose.
1
(1: 13.1, 2: 6.93)

---

tested on: MDR1; assay: MDR1-MDCK permeability (blood–brain barrier model); type: in vitro ADME; settings: dog
measured.metric: Papp (×10⁻⁶ cm/s)

molecule="O=C1Nc2ccc(S(=O)(=O)N3CCN(C(=O)C4CCCCC4)CC3)cc2C1=C1CCCC1 [9b]" assayed_system=MDR1 assay_value=2.92

a. O=C1Nc2ccc(S(=O)(=O)N3CCN(C(=O)c4cccc(Br)c4)CC3)cc2C1=C1CCCC1 [9f]
b. CCCCC(=O)N1CCN(S(=O)(=O)c2ccc3c(c2)C(=C2CCCC2)C(=O)N3)CC1 [9h]
Would you mind telling me which has the lower recorded Papp between a and b ? Mark your answer with the label of the selected entry.
a
(a: 3.2 ×10⁻⁶ cm/s, b: 5.43 ×10⁻⁶ cm/s)

---

system: CCRF-CEM; assay: 3 day MTS cytotoxicity assay, CCRF-CEM; assay type: cell-based; conditions: Homo sapiens, ITK-positive, mean ± SD, n ≥ 6
measured.metric: IC50

smiles_structure=O=C1Nc2ccc(S(=O)(=O)N3CCN(C(=O)c4cccc(Br)c4)CC3)cc2C1=C1CCCC1 assay_value="> 50 µM"
smiles_structure=O=C1Nc2ccc(S(=O)(=O)N3CCN(C(=O)c4cccc(F)c4)CC3)cc2C1=C1CCCC1 assay_value="46.5 µM"

Then this compound:
GET /values?readout=IC50&item= "O=C1Nc2ccc(S(=O)(=O)N3CCN(C(=O)c4cccc(Cl)c4)CC3)cc2C1=C1CCCC1"
> 50 µM

Source: paper PMC10882696
